The measurements presented in this section are drawn from patent US10730868B2.

# assayed_target: PAR4 (Homo sapiens (Human), UniProt Q96RI0)
# Sequence (Q96RI0 18-385): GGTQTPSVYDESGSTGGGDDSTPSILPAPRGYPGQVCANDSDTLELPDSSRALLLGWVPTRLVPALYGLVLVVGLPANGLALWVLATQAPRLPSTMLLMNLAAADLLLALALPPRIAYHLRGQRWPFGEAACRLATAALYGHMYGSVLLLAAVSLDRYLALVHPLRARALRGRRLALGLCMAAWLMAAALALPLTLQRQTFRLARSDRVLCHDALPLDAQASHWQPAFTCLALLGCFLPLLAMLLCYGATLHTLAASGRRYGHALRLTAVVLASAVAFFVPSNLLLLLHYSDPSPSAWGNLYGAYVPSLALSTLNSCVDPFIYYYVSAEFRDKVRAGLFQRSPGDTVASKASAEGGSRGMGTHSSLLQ
# measurement_protocol: PAR4 FLIPR assay (antagonism of agonist-peptide-induced calcium mobilization)
# Assay type: cell-based
# run_conditions: H-Ala-Phe(4-F)-[…]NH2-induced intracellular calcium mobilization, PAR4-expressing HEK293 cells; read-out: PAR4 FLTPR assay (IC50)
Give measured pIC50 for each item. Keep answers brief.
Just so you know, pIC50 here is -log10 of the concentration in molar units; reply with that number alone.

Record COc1cnc2c(-c3nc4cc(F)c(O[C@@H]5CN(C(=O)OCc6ccccc6)C[C@H]5O)cc4s3)cc(C)cc2n1 (racemic) [Example 90] . Reported pIC50: 6.48

Record COc1cnc2c(-c3nc4cc(F)c(O[C@@H]5COC[C@@H]5OC(=O)Nc5cnc(C)nc5)cc4s3)cc(C)cc2n1 (racemic) [Example 86] . Reported pIC50: 8.57

Record COc1ccc(NC(=O)O[C@@H]2CCCC[C@H]2Oc2cc3sc(-c4cc(C)cc5nc(OC)cnc45)nc3cc2F)cn1 (racemic) [Example 53] . Reported pIC50: 7.03

Record COc1ccc(NC(=O)O[C@@H]2CCC[C@H]2Oc2cc3sc(-c4cc(C)cc5nc(OC)cnc45)nc3cc2F)cn1 (racemic) [Example 28] . Reported pIC50: 7.02

Record COc1cnc2c(-c3nc4cc(F)c(O[C@@H]5CCC[C@H]5O)cc4s3)cc(C)cc2n1 (racemic) [Example 41] . Reported pIC50: 6.74

Record COc1cnc2c(-c3nc4cc(F)c(O[C@@H]5CC(C)(C)C[C@@H]5OC(=O)Nc5cnc(C)nc5)cc4s3)cc(C)cc2n1 (racemic) [Example 83] . Reported pIC50: 8.17

---

# assayed_target: PAR4 (Homo sapiens (Human))
# measurement_protocol: PAR4 FLIPR assay (antagonism of agonist-peptide-induced calcium mobilization)
# Type: cell-based
# run_conditions: H-Ala-Phe(4-F)-Pro-Gly-Trp-Leu-Val-Lys-Asn-Gly-NH2-induced intracellular calcium mobilization, PAR4-expressing HEK293 cells; read-out: PAR4 FLTPR assay (IC50)
experimental_endpoint: IC50 (nM)
Unit nM implied. Number only.

Record COc1cnc2c(-c3nc4cc(F)c(O[C@H]5CC(F)(F)CC[C@H]5OC(=O)Nc5cnc(OCCO)nc5)cc4s3)cc(C)cc2n1 . Reported IC50: 1.6

Record COc1cnc2c(-c3nc4cc(F)c(O[C@@H]5CC[C@@H]5OC(=O)Nc5cnc(OCCO)nc5)cc4s3)cc(Cl)cc2n1 . Reported IC50: 9.7

Record COc1cnc2c(-c3nc4cc(F)c(O[C@H]5CC[C@H]5OC(=O)Nc5cnc(C)nc5)cc4s3)cc(C)cc2n1 . Reported IC50: 1.2

Record COc1ccc(NC(=O)O[C@H]2CC[C@H]2Oc2cc3sc(-c4cc(C)cc5nc(OC)cnc45)nc3cc2F)cn1 . Reported IC50: 1.1

Record COc1cnc2c(-c3nc4cc(F)c(O[C@H]5CC(F)(F)CC[C@H]5OC(=O)Nc5ccc(CO)nc5)cc4s3)cc(C)cc2n1 . Reported IC50: 0.76

Record COc1cnc2c(-c3nc4cc(F)c(O[C@H]5CC(F)(F)CC[C@H]5OC(=O)Nc5ccnnc5)cc4s3)cc(C)cc2n1 . Reported IC50: 12

Record COc1cnc2c(-c3nc4cc(F)c(O[C@H]5CC(F)(F)CC[C@H]5OC(=O)Nc5cnc(C)nc5)cc4s3)cc(Cl)cc2c1 . Reported IC50: 4.1

---

# assayed_target: PAR4 (Homo sapiens (Human))
# measurement_protocol: PAR4 FLIPR assay (antagonism of agonist-peptide-induced calcium mobilization)
# Assay type: cell-based
# run_conditions: H-Ala-Phe(4-F)-[…]NH2-induced intracellular calcium mobilization, PAR4-expressing HEK293 cells; read-out: PAR4 FLTPR assay (IC50)
Give measured pIC50 for each item. Keep answers brief.
Just so you know, pIC50 here is -log10 of the concentration in molar units; reply with that number alone.

Record COc1ccc(NC(=O)O[C@H]2CCN(C(=O)OC(C)(C)C)C[C@H]2Oc2cc3sc(-c4cc(C)cc5nc(OC)cnc45)nc3cc2F)cn1 (racemic) . Reported pIC50: 7.92

Record COc1cnc2c(-c3nc4cc(F)c(O[C@@H]5CCCC[C@@H]5OC(=O)Nc5cccnc5)cc4s3)cc(C)cc2n1 (racemic) [Example 55] . Reported pIC50: 8.85

Record COc1cnc2c(-c3nc4cc(F)c(O[C@@H]5CCC(C)(C)[C@@H]5O)cc4s3)cc(C)cc2n1 (racemic) . Reported pIC50: 7.70

Record COc1cnc2c(-c3nc4cc(F)c(OC5CC(F)(F)CC[C@@H]5OC(=O)Nc5cnc(OC)nc5)cc4s3)cc(C)cc2n1 (mixture of isomers) . Reported pIC50: 8.55

Record COc1cnc2c(-c3nc4cc(F)c(O[C@@H]5CCC[C@@H]5OC(=O)Nc5cncc(C#N)c5)cc4s3)cc(C#N)cc2n1 (racemic) . Reported pIC50: 8.66

Record COc1cnc2c(-c3nc4cc(F)c(O[C@@H]5CC[C@@H]5OC(=O)Nc5cnc(C)nc5)cc4s3)cc(C)cc2n1 (racemic) . Reported pIC50: 8.89

Record COc1ccc(NC(=O)O[C@H]2CCOC[C@H]2Oc2cc3sc(-c4cc(C)cc5nc(OC)cnc45)nc3cc2F)cn1 (racemic) . Reported pIC50: 7.68
